Target entity: full-length beta-Catenin (Uniprot ID P35222) (Homo sapiens (Human)) (UniProt P35222)
Sequence (P35222 whole entry): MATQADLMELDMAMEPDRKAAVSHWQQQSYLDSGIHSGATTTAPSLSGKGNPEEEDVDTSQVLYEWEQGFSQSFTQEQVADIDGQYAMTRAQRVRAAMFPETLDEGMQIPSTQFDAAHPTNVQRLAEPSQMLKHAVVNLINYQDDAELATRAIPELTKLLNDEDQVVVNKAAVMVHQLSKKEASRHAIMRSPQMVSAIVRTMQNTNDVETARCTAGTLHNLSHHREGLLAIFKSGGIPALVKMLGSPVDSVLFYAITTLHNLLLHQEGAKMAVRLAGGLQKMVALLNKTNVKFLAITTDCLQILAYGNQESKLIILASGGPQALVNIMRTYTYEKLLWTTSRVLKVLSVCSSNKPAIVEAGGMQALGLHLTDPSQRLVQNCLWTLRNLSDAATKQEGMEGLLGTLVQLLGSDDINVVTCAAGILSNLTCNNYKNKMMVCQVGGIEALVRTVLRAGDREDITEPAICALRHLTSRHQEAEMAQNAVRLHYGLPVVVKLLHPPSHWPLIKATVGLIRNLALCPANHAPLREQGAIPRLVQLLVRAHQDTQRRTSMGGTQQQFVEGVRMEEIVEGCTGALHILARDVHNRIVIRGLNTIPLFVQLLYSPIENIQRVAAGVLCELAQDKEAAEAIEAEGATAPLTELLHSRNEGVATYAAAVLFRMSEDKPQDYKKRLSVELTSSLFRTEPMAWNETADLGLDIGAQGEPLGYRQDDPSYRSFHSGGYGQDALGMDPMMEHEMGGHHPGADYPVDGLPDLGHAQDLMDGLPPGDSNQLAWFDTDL
Test: fluorescence polarization competition; peptide titrated against 10 nM full-length beta-catenin + 10 nM 5FAM-TCF4(10-53) probe
Starred links: 1 amine or outer side, 2 acyl side, 3 side chain; linkers in the order of their positions; H or OH if unused. Positions of bridges follow the written chain, without caps; N, C: chain ends. Non-standard residues stand in square brackets, D forms with d. Primed or numbered codes have the meaning given here. B5(4) = 2,2-bis(4-pentenyl)glycine = 2-amino-2-(pent-4-en-1-yl)hept-6-enoic acid (stitching residue), C=CCCCC(CCCC=C)(N[*:1])C(=O)[*:2]; B5(3) = 2,2-bis(4-pentenyl)glycine (stitching residue), C=CCCCC(CCCC=C)(N[*:1])C(=O)[*:2]; Ala(1H-tetrazol-5-yl) = N[C@@H](Cc1nnn[nH]1)C(=O)O; Phe(3-F) = N[C@@H](Cc1cccc(F)c1)C(=O)O; Bta = N[C@@H](Cc1csc2ccccc12)C(=O)O; αAllylPro = C=CC[C@@]1(C(=O)O)CCCN1; 2Thi = N[C@@H](Cc1cccs1)C(=O)O; 3Thi = N[C@@H](Cc1ccsc1)C(=O)O; S8 = C=CCCCCCC[C@](C)(N)C(=O)O
Readout name: IC50 (nM)
Answers are plain numbers, in nM.

Completed entries (count: 3):
Binder	Readout name	Unit	Obs value
Ac-[αAllylPro]DA[B5(4)]DEAA[3Thi]Q[S8][Phe(3-F)][Bta]-NH2 (staple 1-4, 4-11) [I-431]	IC50	nM	1320
Ac-[αAllylPro]DA[B5(4)]DEAAFQ[S8][2Thi][Bta]Q-NH2 (staple 1-4, 4-11) [I-428]	IC50	nM	60
Ac-[αAllylPro]DA[B5(4)]DEAA[3Thi]Q[S8][Phe(3-F)][Bta]H-NH2 (staple 1-4, 4-11) [I-430]	IC50	nM	154

Attention now turns to another entry.
// query Value lookup for IC50; key = Ac-[αAllylPro][Ala(1H-tetrazol-5-yl)]A[B5(3)]DEAAFQ[S8]F[Bta]Q-NH2 (staple 1-4, 4-11; also: staple isomer composition, later eluting HPLC peak) [I-417]
// result 5000
